Test: in vitro
Details: human, hela cells, % viability
Entries and their viability at 28.5 h, 10 µM values follow.
measured_attribute: viability at 28.5 h, 10 µM (%)

INSERT INTO assay_data (molecule, result_value) VALUES
  ('CN(C)CC(C)(C)CNC(=O)c1cc(-c2ccc(C(=O)N3CCOCC3)cc2)cnc1N', 80.2),
  ('O=C(c1ccc2c(c1)CCO2)N1CCC(Sc2ccc(-c3ccccc3)cc2)CC1', 94.8),
  ('CC1=CC(C)C(CN2CC34C=CC(O3)C(C(=O)O)C4C2=O)C(C)C1 (stereo not shown)', 96.1),
  ('CC(C)(C)C(=O)N1CCC(C(=O)NC(c2ccc3c(c2)OCO3)c2ccccn2)CC1 (stereo not shown)', 110),
  ('CN1CCN(CCOC(=O)N2CCC(C(F)(F)F)CC2)CC1', 103),
  ('O=C(NCc1nnc(-c2cccs2)o1)c1cccc2ccccc12', 82.1),
  ('Cc1cc(C(=O)N2CCC(Cn3cncn3)(C3CCCCC3)CC2)n[nH]1', 99.2);
